- targetOfAssay: T1, Glypican 3 Protein, Human, Recombinant (His Tag) (Sino Biological, Cat #10088-H08H) (human, UniProt P51654 25-559)
- T1 construct: Bought recombinant protein; also called Hu-GPC3 (10088-H08H); human GPC3; not shown: His tag
- T1 sequence (P51654 25-559 limits assumed): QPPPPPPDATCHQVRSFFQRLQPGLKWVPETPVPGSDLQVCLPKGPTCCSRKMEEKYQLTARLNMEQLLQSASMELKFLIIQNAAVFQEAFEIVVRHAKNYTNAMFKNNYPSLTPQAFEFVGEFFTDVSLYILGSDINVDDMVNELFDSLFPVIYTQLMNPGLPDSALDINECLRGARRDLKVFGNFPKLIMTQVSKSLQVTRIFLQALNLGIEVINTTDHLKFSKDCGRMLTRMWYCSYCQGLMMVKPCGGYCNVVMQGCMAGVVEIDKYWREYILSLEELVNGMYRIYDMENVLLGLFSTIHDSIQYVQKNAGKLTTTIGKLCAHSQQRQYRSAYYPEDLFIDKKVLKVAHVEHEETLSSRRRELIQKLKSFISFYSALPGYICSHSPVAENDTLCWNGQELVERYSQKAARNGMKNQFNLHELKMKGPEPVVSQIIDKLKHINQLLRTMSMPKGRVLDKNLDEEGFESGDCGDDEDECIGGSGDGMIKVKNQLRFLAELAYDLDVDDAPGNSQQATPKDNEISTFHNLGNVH
- testDetails: Octet QKe BLI, IgG on AHC probe, GPC3 (Sino Biological) in solution, 1:1 fit
observationType: pKd
Scale note: pKd = -log10(concentration in M).

P17-16A1 IgG (antibody, V domains shown, IgG) VH: EVQLVESGGGLVQPGGSLRLSCAASGFTFKRYAMSWVRQAPGKGLEWVSSVSSSGTGTYYADSVKGRFTISRDNSKNTLYLQMNSLRAEDTAVYYCAKEYDYGLGWMHYYYGMDVWGQGTTVTVSS VL: QSVLTQPPSVSGAPGQRVTISCTGSSSGYDVHWYQQLPGRAPKLLIYGSNNRPSGVPDRFSGSNSGTSASLAITGLQAEDEADYYCQSYDSSLNAIFGGGTKLTVL; 11.93

Query binder follows.
Tell me measured pKd for P17-16A11 IgG (antibody, V domains shown, IgG) VH: EVQLVESGGGLVQPGGSLRLSCAASGFTFDRYAMSWVRQAPGKGLEWVSSLSASGSGTYYADSVKGRFTISRDNSKNTLYLQMNSLRAEDTAVYYCAKEYDFSYGWMHYYYGMDVWGQGTTVTVSS VL: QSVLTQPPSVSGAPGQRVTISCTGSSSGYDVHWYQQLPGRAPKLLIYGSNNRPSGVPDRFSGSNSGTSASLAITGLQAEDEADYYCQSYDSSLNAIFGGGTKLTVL please. 11.99
